Target: T1, recombinant biotinylated monomeric Fc fusion of human Folate Receptor 2 (hu FolR2 ECD-AcTev-Fcknob-Avi tag … (human, UniProt P0DOX5 223-449 = IgG part, biotin on the C-terminal Avi tag))
T1 construct: also called FolR2-Fc
Assay: SPR ProteOn, Fab analyte on immobilized antigen-Fc
readout_type: binding result

binder	reading
16F12 Fab (Fab, V domains shown, bacterial Fab) VH: QVQLVQSGAEVKKPGASVKVSCKASGYTFTSYYMHWVRQAPGQGLEWMGIINPSGGSTSYAQKFQGRVTMTRDTSTSTVYMELSSLRSEDTAVYYCARNFTVLRVPFDYWGQGTLVTVSS VL: QAVVTQEPSLTVSPGGTVTLTCGSSTGAVTTSNYANWVQEKPGQAFRGLIGGTNKRAPGTPARFSGSLLGGKAALTLSGAQPEDEAEYYCALWYSNLWVFGGGTKLTVL	no binding
18D3 Fab (Fab, V domains shown, bacterial Fab) VH: QVQLVQSGAEVKKPGASVKVSCKASGYTFTSYYMHWVRQAPGQGLEWMGIINPSGGSTSYAQKFQGRVTMTRDTSTSTVYMELSSLRSEDTAVYYCARNYYTGGSSAFDYWGQGTLVTVS VL: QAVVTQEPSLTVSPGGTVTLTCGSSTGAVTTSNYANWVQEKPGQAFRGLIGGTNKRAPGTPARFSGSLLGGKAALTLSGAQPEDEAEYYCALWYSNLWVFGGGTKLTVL	no binding
20G6 Fab (Fab, V domains shown, bacterial Fab) VH: QVQLVQSGAEVKKPGASVKVSCKASGYTFTSYYMHWVRQAPGQGLEWMGIINPSGGSTSYAQKFQGRVTMTRDTSTSTVYMELSSLRSEDTAVYYCARGEWIRYYHFDYWGQGTLVTVSS VL: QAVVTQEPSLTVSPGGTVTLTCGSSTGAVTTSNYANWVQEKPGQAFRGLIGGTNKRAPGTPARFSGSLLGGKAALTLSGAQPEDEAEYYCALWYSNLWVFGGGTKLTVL	no binding
